# target-under-test: T1, human GIP receptor (human), P48546
# T1 chain: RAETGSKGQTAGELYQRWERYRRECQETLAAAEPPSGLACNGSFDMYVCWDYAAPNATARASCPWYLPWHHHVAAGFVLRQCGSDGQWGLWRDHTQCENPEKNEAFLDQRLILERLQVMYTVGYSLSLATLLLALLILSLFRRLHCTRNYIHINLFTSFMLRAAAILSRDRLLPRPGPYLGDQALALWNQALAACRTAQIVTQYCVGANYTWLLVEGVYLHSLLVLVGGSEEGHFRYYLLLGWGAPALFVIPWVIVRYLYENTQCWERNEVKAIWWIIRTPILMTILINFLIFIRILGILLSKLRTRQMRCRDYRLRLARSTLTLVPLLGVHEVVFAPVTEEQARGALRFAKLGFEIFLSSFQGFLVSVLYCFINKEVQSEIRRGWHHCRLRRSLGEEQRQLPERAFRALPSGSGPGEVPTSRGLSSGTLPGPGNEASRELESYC
# method-summary: 125I-GIP displacement, 10 nM, HEK-GIPR
Please enter y where % Inh 10 nM is greater than or equal to 90%, and n where it is lower.

binder="YAEGTFISDYSIAMDKIHQQDFVNWLLAQKPKKLKPS (modifications not checked) [0601GIP4822]" answer_label=y
binder="YAEGFISDYSIAMDKIHQQDFVNWLLAQKPSPKKIRYS (modifications not checked) [0601GIP4820]" answer_label=n
binder="YAEGTFISDYSIAMDKIHQQDFVNWLLAQKGFVLWKGIQ (modifications not checked) [0601GIP4619]" answer_label=n
